The measurements presented in this section are drawn from patent US9079866B2.

- Experimental system: human FLAP (Homo sapiens (Human), UniProt P20292)
- Sequence (P20292 whole entry): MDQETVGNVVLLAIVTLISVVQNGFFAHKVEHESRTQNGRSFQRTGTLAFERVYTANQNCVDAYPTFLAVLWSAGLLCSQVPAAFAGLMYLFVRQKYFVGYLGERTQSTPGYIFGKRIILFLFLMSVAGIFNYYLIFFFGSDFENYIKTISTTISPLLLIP
- Test protocol: FLAP binding assay (HTRF format)
- Reported conditions: human FLAP wild type, HTRF format; average of two plates, duplicates
Where a name gives a salt, the structure may show the parent alone.
Recorded metric: Ki (µM)

Below are worked cases with known answers.
>>> readout_number("Nc1ncc(-c2ccc(-c3ccccc3S(=O)(=O)N3CCC[C@H]3CO)cc2F)cn1 [Example 277, trifluoroacetic acid salt]")
0.052
>>> readout_number("CS(=O)(=O)CCCS(=O)(=O)c1ccccc1-c1ccc(-c2cnc(N)cn2)c(F)c1 [Example 246, hydrochloride]")
0.199
>>> readout_number("C[C@@H](CO)NS(=O)(=O)c1ccccc1-c1ccc(-c2cnc3c(c2)OCCN3)c(F)c1 [Example 388]")
0.002
>>> readout_number("CC(C)C[C@@H](CO)NS(=O)(=O)c1ccccc1-c1ccc(-c2cnc(N)cn2)c(F)c1 [Example 79]")
0.005
>>> readout_number("Nc1cnc(-c2ccc(-c3ccccc3SC(F)(F)F)cc2F)cn1 [Example 189]")
0.173

A: Nc1ncc(-c2ccc(-c3ccccc3S(=O)(=O)N3CC(O)C3)cc2F)cn1 [Example 265, trifluoroacetic acid salt]
B: Nc1cnc(-c2ccc(-c3ccccc3S(=O)(=O)N3CCC[C@@H]3CO)cc2F)cn1 [Example 91]
Query :: Compare the recorded Ki of A and B ; state which is larger. Please identify the chosen entry by its label.
Result :: A
(A: 0.045 µM, B: 0.005 µM)

* * *

- Experimental system: human FLAP (Homo sapiens (Human), UniProt P20292)
- Test protocol: FLAP binding assay (HTRF format)
- Reported conditions: wild type FLAP, HTRF format
pKi: −log10 of the molar value.
Recorded metric: pKi

Take a look at these entries with their results.
>>> readout_number("Nc1cnc(-c2ccc(-c3ccccc3C(=O)N3CCOC(C(F)(F)F)C3)cc2F)cn1 (racemic)")
7.16
>>> readout_number("Nc1ncc(-c2ccc(-c3ccc(C(F)(F)F)cc3Oc3ncccn3)cc2F)cn1")
8.30
>>> readout_number("Nc1cnc(-c2ccc(-c3ccc(C(F)(F)F)cc3CNCCO)cc2F)cn1")
6.86
>>> readout_number("CC(C)(C)NS(=O)(=O)c1ccccc1-c1ccc(-c2ncc(N)nc2C#N)c(F)c1")
8.05

a: Nc1cnc(-c2ccc(-c3ccc(C(F)(F)F)cc3C(=O)N3CCS(=O)(=O)CC3)cc2F)cn1
b: CC(C)(C)NS(=O)(=O)c1ccccc1-c1ccc(-c2cnc3[nH]c(=O)[nH]c3n2)c(F)c1
c: Nc1nnc(-c2ccc(-c3ccccc3S(=O)(=O)N3CCS(=O)(=O)CC3)cc2F)s1
Query :: Sort low-to-high on pKi, please. Return value: ordered labels per request.
Result :: c, b, a
(c: 7.51, b: 7.89, a: 8.28)

* * *

- Experimental system: human FLAP (Homo sapiens (Human), UniProt P20292)
- Test protocol: FLAP binding assay (HTRF format)
- Reported conditions: human FLAP wild type, HTRF format; average of two plates, duplicates
pKi: −log10 of the molar value. Structures can show the parent of a compound that is named as a salt.
Recorded metric: pKi

>>> readout_number("Nc1cnc(-c2ccc(-c3ccccc3S(=O)(=O)N3CCCCCC3)cc2F)cn1")
8.52
>>> readout_number("Nc1cnc(-c2ccc(-c3ccccc3Sc3cc(N)ncn3)cc2F)cn1 [Example 215, hydrochloride]")
8.70
>>> readout_number("Nc1ncc(-c2ccc(-c3ccc(C(F)(F)F)cc3S(=O)(=O)NCCO)cc2F)cn1")
8.52
>>> readout_number("Nc1cnc(-c2ccc(-c3ccccc3S(=O)(=O)N[C@H]3CC[C@H](O)CC3)cc2F)cn1")
8.52
>>> readout_number("Nc1ncc(-c2ccc(-c3ccccc3S(=O)(=O)N3CCCCC3)cc2F)cn1 [Example 301, trifluoroacetic acid salt]")
7.89

I: NCCNS(=O)(=O)c1ccccc1-c1ccc(-c2cnc(N)cn2)c(F)c1
II: Nc1ncc(-c2ccc(-c3ccccc3S(=O)(=O)N3CC4(C3)CS(=O)(=O)C4)cc2F)cn1
Query :: Hi there, can you help? I need to know whether I or II has lower measured pKi. Mark your selection by writing its label.
Result :: II
(II: 6.40, I: 7.09)
